Assignment: determine reported inhibition for the given molecules.
tgt: Receptor tyrosine-protein kinase erbB-2 (Homo sapiens) (UniProt P04626)
Sequence (P04626 whole entry): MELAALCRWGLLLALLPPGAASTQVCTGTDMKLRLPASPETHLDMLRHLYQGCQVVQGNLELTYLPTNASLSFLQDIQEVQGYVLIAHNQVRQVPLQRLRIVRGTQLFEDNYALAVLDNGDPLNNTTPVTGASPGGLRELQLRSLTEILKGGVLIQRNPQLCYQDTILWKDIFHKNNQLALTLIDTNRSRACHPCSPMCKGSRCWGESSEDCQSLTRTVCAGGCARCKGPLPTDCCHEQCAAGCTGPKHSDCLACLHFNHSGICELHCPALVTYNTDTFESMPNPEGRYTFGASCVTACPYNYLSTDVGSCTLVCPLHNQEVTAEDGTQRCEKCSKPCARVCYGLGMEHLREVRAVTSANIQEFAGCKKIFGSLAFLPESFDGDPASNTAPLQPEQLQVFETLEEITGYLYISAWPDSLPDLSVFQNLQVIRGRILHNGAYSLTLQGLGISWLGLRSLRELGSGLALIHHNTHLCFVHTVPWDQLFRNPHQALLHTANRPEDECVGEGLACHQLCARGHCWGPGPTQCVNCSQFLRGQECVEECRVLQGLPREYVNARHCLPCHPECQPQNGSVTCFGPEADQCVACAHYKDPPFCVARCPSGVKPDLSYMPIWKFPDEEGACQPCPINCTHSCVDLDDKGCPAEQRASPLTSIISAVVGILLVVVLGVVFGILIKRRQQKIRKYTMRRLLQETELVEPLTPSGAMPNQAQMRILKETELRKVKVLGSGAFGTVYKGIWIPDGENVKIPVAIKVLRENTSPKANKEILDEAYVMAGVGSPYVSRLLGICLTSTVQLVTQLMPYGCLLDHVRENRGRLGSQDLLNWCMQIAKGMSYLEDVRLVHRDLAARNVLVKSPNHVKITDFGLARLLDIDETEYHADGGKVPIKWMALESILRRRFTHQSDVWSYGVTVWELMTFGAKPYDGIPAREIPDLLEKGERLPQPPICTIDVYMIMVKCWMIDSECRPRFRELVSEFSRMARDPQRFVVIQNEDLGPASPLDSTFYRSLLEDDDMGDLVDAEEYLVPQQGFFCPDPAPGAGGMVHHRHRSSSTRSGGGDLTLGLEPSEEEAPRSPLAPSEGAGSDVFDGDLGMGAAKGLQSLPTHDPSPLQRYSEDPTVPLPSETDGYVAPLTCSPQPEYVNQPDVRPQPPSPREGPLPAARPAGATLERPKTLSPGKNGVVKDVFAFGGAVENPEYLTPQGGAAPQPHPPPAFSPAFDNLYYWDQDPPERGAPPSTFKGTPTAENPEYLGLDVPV
condition.description: at 1 µM
Description: GSK_PKIS: ERBB2 mean inhibition at 1 uM [Nanosyn]
Your reply should be a number followed by the unit it is expressed in.

The molecule listed as COc1cc(N2CCN(C(C)C)CC2)ccc1Nc1nc(Nc2cccc3ncccc23)c2cc[nH]c2n1 has a reported inhibition of 2.24%

The molecule listed as CCN1CCC(C(=O)Nc2n[nH]c3nnc(-c4cccc(F)c4F)cc23)CC1 has a reported inhibition of 0.02%

The molecule listed as FC(F)(F)CNc1nccc(-c2cnn3ncccc23)n1 has a reported inhibition of 3.89%

The molecule listed as CS(=O)(=O)Nc1ccc(-c2ccc3c(NC(=O)C4CC4)n[nH]c3c2)cc1 has a reported inhibition of -2.83%

The molecule listed as NC(=O)c1ccc2c(-c3ccnc(NCCCO)n3)c(-c3ccc(F)cc3)nn2c1 has a reported inhibition of 3.13%

The molecule listed as Fc1cccc(COc2ccc(Nc3ncncc3C#Cc3ccccc3)cc2Cl)c1 has a reported inhibition of 4.08%

The molecule listed as CCn1c(-c2nonc2N)nc2cncc(C(=O)NCCNC)c21 has a reported inhibition of 3.74%

The molecule listed as CCS(=O)(=O)c1ccc(OC)c(Nc2ncc(-c3cccc(F)c3)o2)c1 has a reported inhibition of 5.62%

The molecule listed as COc1cccc(-n2ncc3c(N/N=C/c4ccc(C(=O)NCCN(C)C)cc4)ncnc32)c1 has a reported inhibition of 10.5%

The molecule listed as COc1ccccc1-c1cc(/C=C2\C(=O)Nc3ncc(Br)cc32)cc(Br)c1O has a reported inhibition of -4.15%

###

tgt: Tyrosine-protein kinase receptor UFO (Homo sapiens)
condition.description: at 1 µM
Description: GSK_PKIS: AXL mean inhibition at 1 uM [Nanosyn]
experimental.readout: inhibition (%)
Write the answer as a number in %, unit excluded.

O=C(O[C@H]1CN[C@H](C#Cc2cc3ncnc(Nc4ccc5c(cnn5Cc5ccccc5)c4)c3s2)C1)N1CCOCC1 on Tyrosine-protein kinase receptor UFO (Homo sapiens) gives inhibition = 2.46

COc1ccccc1-c1cc(/C=C2\C(=O)Nc3ncc(Br)cc32)cc(Br)c1O on Tyrosine-protein kinase receptor UFO (Homo sapiens) gives inhibition = -1.51

COc1cc2c(cc1Nc1nc(Nc3cccc(F)c3C(N)=O)c3cc[nH]c3n1)N(C(=O)CN1CCN(C(C)C)CC1)CC2 on Tyrosine-protein kinase receptor UFO (Homo sapiens) gives inhibition = 2.45

O=C(O[C@H]1CN[C@H](C#Cc2cc3ncnc(Nc4ccc5c(ccn5Cc5cc(F)ccc5F)c4)c3s2)C1)N1CCOCC1 on Tyrosine-protein kinase receptor UFO (Homo sapiens) gives inhibition = -5.54

CCN1CCC(C(=O)Nc2n[nH]c3nnc(-c4cccc(F)c4F)cc23)CC1 on Tyrosine-protein kinase receptor UFO (Homo sapiens) gives inhibition = 2.22

CC(C)c1ccc(-c2cc(-c3c[nH]nc3-c3ccccn3)ccn2)cc1 on Tyrosine-protein kinase receptor UFO (Homo sapiens) gives inhibition = 2.69

COC(=O)Nc1nc2ccc(Oc3ccc(NC(=O)Nc4cc(C(F)(F)F)ccc4F)cc3)cc2s1 on Tyrosine-protein kinase receptor UFO (Homo sapiens) gives inhibition = 46.6

COc1cccc(-n2ncc3c(N/N=C/c4ccc(C(=O)NCCN(C)C)cc4)ncnc32)c1 on Tyrosine-protein kinase receptor UFO (Homo sapiens) gives inhibition = 40.9

Cc1cc(O)cc(C)c1/C=C/c1cncc(C(=O)OC(C)(C)C)c1 on Tyrosine-protein kinase receptor UFO (Homo sapiens) gives inhibition = -3.72

###

tgt: Dual specificity protein kinase CLK2 (Homo sapiens)
condition.description: at 1 µM
Assignment: determine reported inhibition for the given compounds.
Write the answer as a number in %, unit excluded.

The compound listed as CCN1CCC(C(=O)Nc2n[nH]c3nnc(-c4cccc(F)c4F)cc23)CC1 has a reported inhibition of 2.56

The compound listed as COC(=O)Nc1nc2cc(Oc3ccc(NC(=O)Nc4ccccc4)cc3)ccc2[nH]1 has a reported inhibition of -1.36

The compound listed as Fc1cccc(COc2ccc(Nc3ncncc3C#Cc3ccccc3)cc2Cl)c1 has a reported inhibition of 2.09

The compound listed as CN1CCC(n2cnc(-c3ccc(F)cc3)c2-c2ccnc(NCCO)n2)CC1 has a reported inhibition of 2.41

The compound listed as CCS(=O)(=O)c1ccc(OC)c(Nc2ncc(-c3cccc(C(C)=O)c3)o2)c1 has a reported inhibition of 82.8

The compound listed as Cc1nnc(-c2cccc(-c3ccc(C(=O)NCC4CC4)cc3)c2)o1 has a reported inhibition of 1.14

The compound listed as c1ccc(-c2n[nH]cc2-c2ccnc(-c3ccc(OCCn4ccnc4)cc3)c2)nc1 has a reported inhibition of 1.21

The compound listed as CNC(=O)c1cncc(/C=C/c2ccccc2C)c1 has a reported inhibition of 2.46

The compound listed as N#Cc1ccc2c(-c3ccnc(NC4CC4)n3)c(-c3ccc(F)cc3)nn2c1 has a reported inhibition of -1.71

The compound listed as NC(=O)c1ccc2c(-c3ccnc(NCCCO)n3)c(-c3ccc(F)cc3)nn2c1 has a reported inhibition of 2.32

The compound listed as CN(C)CCNC(=O)Nc1ccc(N(C)c2ccnc(Nc3ccc(CS(C)(=O)=O)cc3)n2)cc1 has a reported inhibition of 3.79

The compound listed as COc1cccc(-n2ncc3c(N/N=C/c4ccc(C(=O)NCCN(C)C)cc4)ncnc32)c1 has a reported inhibition of 73.7

The compound listed as COc1ccccc1-c1cc(/C=C2\C(=O)Nc3ncc(Br)cc32)cc(Br)c1O has a reported inhibition of 5.09

The compound listed as NS(=O)(=O)c1ccc(N/N=C2\C(=O)Nc3ccc(C(=O)NCc4ccncc4)cc32)cc1 has a reported inhibition of 36.8

The compound listed as CS(=O)(=O)Nc1ccc(-c2ccc3c(NC(=O)C4CC4)n[nH]c3c2)cc1 has a reported inhibition of 3.05

The compound listed as N#Cc1cccc(Nc2ncc(-c3ccccc3)o2)c1 has a reported inhibition of 9.1

The compound listed as NS(=O)(=O)c1cccc(N/C=C2\C(=O)Nc3ccccc32)c1 has a reported inhibition of 13.7

###

tgt: Aurora kinase B (Homo sapiens)
condition.description: at 0.1 µM
experimental.readout: inhibition (%)
Write the answer as a number in %, unit excluded.

COC(=O)Nc1nc2cc(Oc3ccc(NC(=O)Nc4ccccc4)cc3)ccc2[nH]1 on Aurora kinase B (Homo sapiens) gives inhibition = 11.9

COc1cc2c(cc1Nc1nc(Nc3cccc(F)c3C(N)=O)c3cc[nH]c3n1)N(C(=O)CN1CCN(C(C)C)CC1)CC2 on Aurora kinase B (Homo sapiens) gives inhibition = 1.62

CNC(=O)c1cncc(/C=C/c2ccccc2C)c1 on Aurora kinase B (Homo sapiens) gives inhibition = 3.77

COc1cc(Nc2ncc(-c3ccccc3)o2)cc(OC)c1 on Aurora kinase B (Homo sapiens) gives inhibition = 5

OCCCNc1nccc(-c2c(-c3ccc(F)cc3)nn3cc(C(F)(F)F)ccc23)n1 on Aurora kinase B (Homo sapiens) gives inhibition = 3.85

Cc1ccc(-c2cc3c(NC(=O)C4CC4)ncnc3o2)cc1 on Aurora kinase B (Homo sapiens) gives inhibition = 5.78

COc1cc(N2CCN(C(C)C)CC2)ccc1Nc1nc(Nc2cccc3ncccc23)c2cc[nH]c2n1 on Aurora kinase B (Homo sapiens) gives inhibition = 0.66

CCS(=O)(=O)c1ccc(OC)c(Nc2ncc(-c3cccc(C(C)=O)c3)o2)c1 on Aurora kinase B (Homo sapiens) gives inhibition = 3.08

O=C(O[C@H]1CN[C@H](C#Cc2cc3ncnc(Nc4ccc(OCc5cccc(F)c5)c(Cl)c4)c3s2)C1)N1CCOCC1 on Aurora kinase B (Homo sapiens) gives inhibition = 3.72

CC1=C(C(=O)Nc2ccc3[nH]ncc3c2)C(c2ccc(F)cc2)N=C(c2ccc(C(F)(F)F)nc2)N1 (stereo not given) on Aurora kinase B (Homo sapiens) gives inhibition = 3.38

CCN1CCC(C(=O)Nc2n[nH]c3nnc(-c4cccc(F)c4F)cc23)CC1 on Aurora kinase B (Homo sapiens) gives inhibition = -0.39

CS(=O)(=O)CCNCc1ccc(-c2ccc3ncnc(Nc4ccc(OCc5ccccc5)cc4)c3c2)o1 on Aurora kinase B (Homo sapiens) gives inhibition = 4.74

Cc1cc(O)cc(C)c1/C=C/c1cncc(C(N)=O)c1 on Aurora kinase B (Homo sapiens) gives inhibition = 2.21

CN(C)CCNC(=O)Nc1ccc(N(C)c2ccnc(Nc3ccc(CS(C)(=O)=O)cc3)n2)cc1 on Aurora kinase B (Homo sapiens) gives inhibition = 21.6

CC(C)c1ccc(-c2cc(-c3c[nH]nc3-c3ccccn3)ccn2)cc1 on Aurora kinase B (Homo sapiens) gives inhibition = 0.9

COc1ccccc1-c1cc(/C=C2\C(=O)Nc3ncc(Br)cc32)cc(Br)c1O on Aurora kinase B (Homo sapiens) gives inhibition = 12.4

CCn1c(-c2nonc2N)nc2cncc(C(=O)NCCNC)c21 on Aurora kinase B (Homo sapiens) gives inhibition = 2.77

COC(=O)Nc1nc2ccc(Oc3ccc(NC(=O)Nc4cc(C(F)(F)F)ccc4F)cc3)cc2s1 on Aurora kinase B (Homo sapiens) gives inhibition = 5.4

COc1cccc(-n2ncc3c(N/N=C/c4ccc(C(=O)NCCN(C)C)cc4)ncnc32)c1 on Aurora kinase B (Homo sapiens) gives inhibition = 7.23

Cc1nnc(-c2cccc(-c3ccc(C(=O)NCC4CC4)cc3)c2)o1 on Aurora kinase B (Homo sapiens) gives inhibition = 3.21

CS(=O)(=O)CCNCc1ccc(-c2ccc3ncnc(Nc4ccc(OCc5cccc(C(F)(F)F)c5)cc4)c3c2)o1 on Aurora kinase B (Homo sapiens) gives inhibition = 5.65

NS(=O)(=O)c1ccc(N/N=C2\C(=O)Nc3cccc(CCc4ccncc4)c32)cc1 on Aurora kinase B (Homo sapiens) gives inhibition = 3.64

CNC(=O)c1ncccc1Nc1nc(Nc2cc3c(cc2OC)CCCN3C(=O)CN(C)C)nc2[nH]ccc12 on Aurora kinase B (Homo sapiens) gives inhibition = 3.79

N#Cc1cccc(Nc2ncc(-c3ccccc3)o2)c1 on Aurora kinase B (Homo sapiens) gives inhibition = 4.81

CS(=O)(=O)Nc1ccc(-c2cc(-c3ccccc3)cc(C(N)=O)c2N)cc1 on Aurora kinase B (Homo sapiens) gives inhibition = 1.93

Source listed as ChEMBL document CHEMBL1961873.
